This section presents variants with their documented yeast fitness values.
B1: tRNA (parent)
chain: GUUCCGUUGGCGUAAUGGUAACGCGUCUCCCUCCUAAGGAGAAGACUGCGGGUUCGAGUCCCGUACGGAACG

- Variants of: B1
- Procedure Summary: yeast fitness relative to wild type (ratio to wild type); higher = fitter; tRNA-Arg(CCU), competitive growth, 37 C, YPD
Fewer inactive variants are shown than the library holds.

• A36U C49U G58C C66U = ≤ 0.5
• U2A C24G A37C G56C = ≤ 0.5
• C29G U35A A42U = ≤ 0.5
• G10A G38C G50A A69G = ≤ 0.5
• G6A U35G A42G G56C = ≤ 0.5
• U28G A45G G51C A70G = ≤ 0.5

Q. // returns reported yeast fitness for input C4G U7C A45U G48C
A. ≤ 0.5

Q. Can you handle U16C A21C A37G A69G A70G next?
A. ≤ 0.5

Q. Can you handle C5G C33G A40U next?
A. ≤ 0.5

Q. Can you handle C22U G23A G48A A65U next?
A. ≤ 0.5

Q. Can you handle C5U U32C C33U C62U A65G next?
A. ≤ 0.5

Q. Can you handle C11G C30U G67C next?
A. ≤ 0.5

Q. Can you handle A14G A21U C62G next?
A. ≤ 0.5

Q. Can you handle C4U G6A A15U A20C G25C U35A A45U next?
A. ≤ 0.5

Q. Can you handle U54C A57U next?
A. 0.595

Q. Can you handle C11A C22A next?
A. 0.626

Q. Can you handle C29G G50C C66A next?
A. 0.518

Q. Can you handle C4U C11A A37C A65C next?
A. ≤ 0.5

Q. Can you handle A20U G25C A37G C60G C61G A70U next?
A. ≤ 0.5

Q. Can you handle G10C G51C C61U next?
A. ≤ 0.5

Q. Can you handle U3C G58C G67C next?
A. 0.701

Q. Can you handle U16A C24G G51A next?
A. ≤ 0.5

Recorded values, source the RNAGym collection of RNA variant scans (doi:10.1126/science.aae0568).
